# TARGET: G-protein coupled receptor 68 (Homo sapiens) (UniProt Q15743)
# Sequence (Q15743 whole entry): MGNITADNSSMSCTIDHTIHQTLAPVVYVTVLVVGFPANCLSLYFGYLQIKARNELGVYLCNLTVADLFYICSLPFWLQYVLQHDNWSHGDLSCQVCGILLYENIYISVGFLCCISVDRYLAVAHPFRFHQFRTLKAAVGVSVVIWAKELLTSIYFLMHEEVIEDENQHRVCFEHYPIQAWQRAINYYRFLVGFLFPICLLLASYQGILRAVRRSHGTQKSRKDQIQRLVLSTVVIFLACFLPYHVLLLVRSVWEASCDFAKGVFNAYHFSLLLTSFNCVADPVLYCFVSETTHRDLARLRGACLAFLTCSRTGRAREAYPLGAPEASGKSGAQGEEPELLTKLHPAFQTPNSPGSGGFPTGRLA
# TEST PROTOCOL: Positive allosteric modulation of human GPR68 expressed in HEK293T cells co-expressing Gs assessed as stimulation of proton-mediated cAMP production by measuring efficacy cooperativity in HBSS buffer containing pH 6.8 to 8.2 HEPES/pH 8.3 to 8.6 TAPS measured after 20 to 30 mins in presence of PDE inhibitor Ro 20-1724 by luciferase-glo reporter gene assay
# Format: functional, cell-based
Reported log(activity) is given for each of the following compounds.

# CHEMICAL STRUCTURE, TARGET, log(activity)
rows = [
    ("Nc1nc(NCc2ccccc2)nc(-c2ccccc2CO)n1", "G-protein coupled receptor 68 (Homo sapiens) (UniProt Q15743)", 0.36),
]

Q. Item under review: `Nc1nc(NCc2ccc(Oc3ccccc3)cc2)nc(-c2cc(Cl)ccc2CO)n1` . Reported log(activity)?
A. 0.03

Q. Entry under review: `Cc1ccc(CNc2nc(N)nc(-c3ccccc3CO)n2)cc1` . Reported log(activity)?
A. 0.32

Q. Would you mind telling me what log(activity) value was observed for `Nc1nc(NCc2cccc(Cl)c2)nc(-c2ccccc2CO)n1` ?
A. 0.46

Q. Consider the compound `Nc1nc(NCc2ccc(Oc3ccccc3)cc2)nc(-c2ccccc2CO)n1` and give its measured log(activity).
A. 0

Q. Which value of log(activity) has been reported for `Nc1nc(NCc2cccc(C(F)(F)F)c2)nc(-c2ccccc2CO)n1` in the records?
A. 0.32

Q. For the compound shown here, `Nc1nc(NCCCc2ccccc2)nc(-c2ccccc2CO)n1` , give the reported log(activity).
A. 0.08

Q. Consider the compound `NCc1ccccc1-c1nc(N)nc(NCc2ccccc2)n1` and give its measured log(activity).
A. 0.3

###

# TARGET: UniProt Q15743
# TEST PROTOCOL: Positive allosteric modulation of human GPR68 expressed in HEK293T cells co-expressing Gs assessed as stimulation of proton-mediated cAMP production in HBSS buffer containing pH 6.8 to 8.2 HEPES/pH 8.3 to 8.6 TAPS measured after 20 to 30 mins in presence of PDE inhibitor Ro 20-1724 by luciferase-glo reporter gene assay
# Format: functional, cell-based
Activity calls are given as the source filed them. No cut-off for these calls is given here.
Output constraint: value belongs to active, inactive

Answered examples (4):
# CHEMICAL STRUCTURE, TARGET, ANSWER LABEL
records = [
    ("Nc1nc(NCc2ccc(Oc3ccccc3)cc2)nc(-c2c(F)cccc2CO)n1", "UniProt Q15743", "active"),
    ("Nc1nc(NCc2ccccc2)nc(-c2ccccc2CO)n1", "UniProt Q15743", "active"),
    ("CC(=O)c1cccc(-c2nc(N)nc(NCc3ccccc3)n2)c1", "UniProt Q15743", "inactive"),
    ("CN(C)c1nc(NCc2ccccc2)nc(-c2ccccc2CO)n1", "UniProt Q15743", "inactive"),
]

Turning to the following compound.
Q. Assay outcome for `Nc1nc(NCc2ccccc2)nc(-c2cccc(CO)c2)n1` : what was it?
A. inactive

###

# TARGET: Adenosine receptor A2a (Homo sapiens)
# Sequence (P29274 whole entry): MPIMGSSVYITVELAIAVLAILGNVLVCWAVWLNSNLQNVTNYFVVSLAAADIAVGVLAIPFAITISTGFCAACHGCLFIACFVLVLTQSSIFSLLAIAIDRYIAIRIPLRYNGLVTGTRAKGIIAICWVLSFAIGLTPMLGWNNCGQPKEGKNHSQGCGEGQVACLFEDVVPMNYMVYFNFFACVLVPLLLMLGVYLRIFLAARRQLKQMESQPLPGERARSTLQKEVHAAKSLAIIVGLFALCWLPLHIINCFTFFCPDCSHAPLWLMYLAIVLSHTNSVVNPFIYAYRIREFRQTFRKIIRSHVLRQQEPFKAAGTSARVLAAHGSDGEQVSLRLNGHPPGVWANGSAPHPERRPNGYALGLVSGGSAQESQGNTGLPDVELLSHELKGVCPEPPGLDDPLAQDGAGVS
# TEST PROTOCOL: Antagonist activity at recombinant human A2A receptor expressed in HEK293T cells co-expressing Gs assessed as inhibition of NECA-stimulated cAMP accumulation preincubated for 15 mins followed by NECA addition and measured after 15 mins by Glosensor chemiluminescence assay
# Type: functional, cell-based
ENDPOINT NAME: Ki (µM)
Write the number in µM without appending the unit.

Q. // returns reported Ki for input `Nc1nc(NCc2ccc(Cl)cc2)nc(-c2ccccc2CO)n1`
A. 6.7
